Biological target: T1, LIN7C, Q9NUP9
T1 sequence (Q9NUP9 88-185, limits assumed, looked up): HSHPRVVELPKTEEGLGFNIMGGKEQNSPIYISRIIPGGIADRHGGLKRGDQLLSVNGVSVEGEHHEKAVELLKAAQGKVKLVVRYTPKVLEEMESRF
Test: holdup assay
Parameters: key: below the threshold = too weak to quantify, mostly under pKd 3.1 to 4
Settings: plain residues with an end cap or a label only (N-terminal biotin on a linker: ahx)
QUANTITY MEASURED: pKd

• HTHSYIETHV [CNKSR2, Q8WXI2] = 3.67
• TQKFRASTAL [FRMPD1, Q5SYB0] = 3.52
